# Subject of test: prostaglandin synthetases (Bos taurus)
# Construct: isolated as a microsomal extract from bovine seminal vesicles; from tissue; host or cells: bovine seminal vesicles (microsomal extract)
# Protocol: Anti-inflammatory activity: inhibition of prostaglandin biosynthesis (prostaglandin synthetases, microsomal extract from bovine seminal vesicles)
# Type: biochemical
# Run parameters: 14C-arachidonic acid substrate; DMSO 2%; read-out: EC50 in mol (50% decrease in the amount of prostaglandins)
Consider the following molecules and their measured log10(EC50) readings.
Each number you see is log10 of EC50, and the unit inside the log is nM.

Field: example entries. Status: answers known.
| Molecule | Measured quantity | Numeric value |
| --- | --- | --- |
| CN1C(C(=O)Nc2ncc(Cl)s2)=C(O)c2sc3ccccc3c2S1(=O)=O [J] | log10(EC50) | 1.67 |
| CN1C(C(=O)Nc2nccs2)=C(O)c2sc3ccccc3c2S1(=O)=O [A] | log10(EC50) | 1.59 |
| CN1C(C(=O)Nc2nc3ccccc3s2)=C(O)c2sc3ccccc3c2S1(=O)=O [I] | log10(EC50) | 1.34 |
| CN1C(C(=O)Nc2nccs2)=C(O)c2ccccc2S1(=O)=O [W, Sudoxicam, reference compound] | log10(EC50) | 3.85 |

[in] Let me know recorded log10(EC50) for Cc1csc(NC(=O)C2=C(O)c3sc4ccccc4c3S(=O)(=O)N2C)n1 [C] , thanks.
[out] 1.32

====

# Subject of test: prostaglandin synthetases (Bos taurus, UniProt O62664)
# Construct: isolated as a microsomal extract from bovine seminal vesicles; from tissue; host or cells: bovine seminal vesicles (microsomal extract)
# Sequence (O62664 25-600): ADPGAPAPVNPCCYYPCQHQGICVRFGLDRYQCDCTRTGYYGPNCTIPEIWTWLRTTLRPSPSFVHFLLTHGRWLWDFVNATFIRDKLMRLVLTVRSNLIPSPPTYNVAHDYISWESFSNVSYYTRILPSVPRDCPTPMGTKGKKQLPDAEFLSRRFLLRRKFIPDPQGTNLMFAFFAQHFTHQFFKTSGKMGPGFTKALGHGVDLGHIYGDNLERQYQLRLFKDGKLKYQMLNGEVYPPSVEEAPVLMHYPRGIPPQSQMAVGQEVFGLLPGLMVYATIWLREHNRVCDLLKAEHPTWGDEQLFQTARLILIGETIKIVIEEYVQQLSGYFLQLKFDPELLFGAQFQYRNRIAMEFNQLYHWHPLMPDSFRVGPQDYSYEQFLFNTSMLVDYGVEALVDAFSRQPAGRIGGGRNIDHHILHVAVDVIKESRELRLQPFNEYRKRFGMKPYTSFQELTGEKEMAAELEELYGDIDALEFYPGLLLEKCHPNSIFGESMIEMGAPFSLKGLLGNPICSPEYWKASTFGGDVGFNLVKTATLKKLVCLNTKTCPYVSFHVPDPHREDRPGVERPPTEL
# Protocol: Anti-inflammatory activity: inhibition of prostaglandin biosynthesis (prostaglandin synthetases, microsomal extract from bovine seminal vesicles)
# Type: biochemical
# Run parameters: 14C-arachidonic acid substrate; DMSO 10%; read-out: EC50 in mol (50% decrease in the amount of prostaglandins)
Measured quantity: EC50 (nM)
Provide only the numeric value, understood in nM.

[in] Let me know recorded EC50 for Cc1nc(NC(=O)C2=C(O)c3sc4ccccc4c3S(=O)(=O)N2C)sc1C [K] , thanks.
[out] 250
